experiment: endothelial E-selectin expression blockers – imaging, HUVEC, immunofluorescence, MLSMR starter and 10KST1 sets, primary screen (AID 487); conditions: HUVEC TNFalpha-induced E-selectin immunofluorescence imaging, at 2 µM; measured here: cell number, toxicity;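 note: 100% = median nuclei count of all wells on the same plate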
Field: nuclei count. Provide a value for each of the compounds that follow.
Response body: numeric value in %, unit text excluded.

In: Dear colleague, I am looking for the recorded nuclei count of the following compound: "Clc1cccc(Cl)c1COc1ccncc1"
Out: 104

In: Dear colleague, I am looking for the recorded nuclei count of the following compound: "Cc1cc2ncn(C(=O)N3CCOCC3)c2cc1C"
Out: 122

In: Dear colleague, I am looking for the recorded nuclei count of the following compound: COc1ccc(CCN2C(=O)CCC2(C)C(=O)NCc2cccnc2)cc1OC (stereo unspecified)
Out: 97.9

In: Dear colleague, I am looking for the recorded nuclei count of the following compound: COc1ccc(C2C(C#N)=C(C)NC3=C2C(=O)CC(C)(C)C3)c(OC)c1 (stereo unspecified)
Out: 96

In: Dear colleague, I am looking for the recorded nuclei count of the following compound: "Cc1cc2ncc(-c3ccc(Cl)cc3)c(N)n2n1"
Out: 125

In: Dear colleague, I am looking for the recorded nuclei count of the following compound: CC1=C(C(=O)Nc2ccccc2C)C(c2ccc(C)o2)N2C(=O)CSC2=N1 (stereo unspecified)
Out: 95.6

In: Dear colleague, I am looking for the recorded nuclei count of the following compound: "COc1cccc(N2CCN(CC(=O)NCc3cccs3)CC2)c1"
Out: 99.5

In: Dear colleague, I am looking for the recorded nuclei count of the following compound: "CCOC(=O)c1cc(-c2nnc(-c3ccc(Oc4ccccc4)cc3)o2)c(C)nc1C"
Out: 110

In: Dear colleague, I am looking for the recorded nuclei count of the following compound: Cc1cn(C2CC3OCC3O2)c(=O)[nH]c1=O (stereo unspecified)
Out: 98.4

In: Dear colleague, I am looking for the recorded nuclei count of the following compound: "COc1ccc(C(=O)N2CCN(C3CCCCC3)CC2)c(OC)c1"
Out: 138

In: Dear colleague, I am looking for the recorded nuclei count of the following compound: "O=C(Nc1ccc(N2CCCC2)cc1)c1ccc(Br)o1"
Out: 94.7

In: Dear colleague, I am looking for the recorded nuclei count of the following compound: "O=S1(=O)Nc2c(ccc3cccnc23)-c2ccccc21"
Out: 94.2

In: Dear colleague, I am looking for the recorded nuclei count of the following compound: "CCOC(=O)c1oc2ccccc2c1CSc1nnnn1-c1ccc(OC)cc1"
Out: 110

In: Dear colleague, I am looking for the recorded nuclei count of the following compound: CC1(C)C2CCC1(C)C(OC(=O)CSc1nc(N)cc(=O)[nH]1)C2 (stereo unspecified)
Out: 136

In: Dear colleague, I am looking for the recorded nuclei count of the following compound: "O=C(Nc1cccc(F)c1)c1cccc(S(=O)(=O)N2CCOCC2)c1"
Out: 92.1

In: Dear colleague, I am looking for the recorded nuclei count of the following compound: "COc1ccc(CSCCN)cc1Cl"
Out: 107
